- Tested on: TPA-induced epidermal hyperplasia
- protocolText: Inhibition of TPA-induced epidermal hyperplasia (epidermal thickness) on back skin of mice
- Format: in vivo, BALB/c mice
- conditionLabel: Mus musculus; Hill equation fit; means ± SD; steroid premixed with TPA, topical; read-out: Emax (% inhibition)
Entry flag: true if Emax reaches 90%; false if it does not.

Solved cases (3 shown):
compound	labelValue
C[C@]12CCC(=O)C=C1CC[C@@H]1[C@@H]2[C@@H](O)C[C@@]2(C)[C@H]1CC[C@]2(O)C(=O)CO [Hydrocortisone, hydrocortisone]	true
CC(=O)OCC(=O)[C@@]1(O)CC[C@H]2[C@@H]3CCC4=CC(=O)CC[C@]4(C)[C@H]3[C@@H](O)C[C@@]21C [Hydrocortisone acetate, hydrocortisone acetate]	false
CCCCC(=O)O[C@]1(C(=O)CO)[C@@H](C)C[C@H]2[C@@H]3CCC4=CC(=O)C=C[C@]4(C)[C@@]3(F)[C@@H](O)C[C@@]21C [Betamethasone valerate, betamethasone valerate]	false

Task: API: above_or_equal(metric=Emax, cutoff=90%) for item C[C@H]1C[C@H]2[C@@H]3CCC4=CC(=O)C=C[C@]4(C)[C@@]3(F)[C@@H](O)C[C@]2(C)[C@@]1(O)C(=O)CO
Result: true

Task: Quick check, Emax >= 90%? CCC(=O)OCC(=O)[C@@]1(OC(=O)CC)[C@@H](C)C[C@H]2[C@@H]3CCC4=CC(=O)C=C[C@]4(C)[C@@]3(F)[C@@H](O)C[C@@]21C [Betamethasone dipropionate, betamethasone dipropionate]
Result: true

* * *

- Test system: TPA-induced epidermal hyperplasia
- protocolText: Inhibition of TPA-induced epidermal hyperplasia (epidermal thickness) on back skin of mice
- Type: in vivo, BALB/c mice
- conditionLabel: from Hill-equation IC50; hydrocortisone acetate = 1.0
Relative potency values for the molecules below.
Just the number, please, no unit after it.

Task: Which Relative potency is listed for C[C@@H]1C[C@H]2[C@@H]3CCC4=CC(=O)C=C[C@]4(C)[C@@]3(Cl)[C@@H](O)C[C@]2(C)[C@@]1(OC(=O)c1ccco1)C(=O)CCl [Mometasone furoate, mometasone furoate] ?
Result: 159.43

Task: Item C[C@@H]1C[C@H]2[C@@H]3C[C@H](F)C4=CC(=O)C=C[C@]4(C)[C@H]3[C@@H](O)C[C@]2(C)[C@H]1C(=O)COC(=O)C(C)(C)C [Fluocortolone 21-pivalate] has what recorded Relative potency?
Result: 91.68

Task: May I ask what Relative potency has been recorded for C[C@]12CCC(=O)C=C1CC[C@@H]1[C@@H]2[C@@H](O)C[C@@]2(C)[C@H]1CC[C@]2(O)C(=O)CO [Hydrocortisone, hydrocortisone] ?
Result: 0.79

* * *

- Tested on: TPA-induced epidermal hyperplasia
- protocolText: Inhibition of TPA-induced epidermal hyperplasia (epidermal thickness) on back skin of mice
- Format: in vivo, BALB/c mice
- conditionLabel: from IC50 read from curve; hydrocortisone acetate = 1.0
Relative potency vs 50: less than gives true; not less than gives false.

molecule	labelValue
C[C@H]1C[C@H]2[C@@H]3CCC4=CC(=O)C=C[C@]4(C)[C@@]3(F)[C@@H](O)C[C@]2(C)[C@@]1(O)C(=O)CO [Betamethasone, betamethasone]	true
C[C@@H]1C[C@H]2[C@@H]3CCC4=CC(=O)C=C[C@]4(C)[C@@]3(F)[C@@H](O)C[C@]2(C)[C@@]1(O)C(=O)CO [Dexamethasone]	true
CC1(C)O[C@@H]2C[C@H]3[C@@H]4CCC5=CC(=O)CC[C@]5(C)[C@@]4(F)[C@@H](O)C[C@]3(C)[C@]2(C(=O)CCl)O1 [Halcinonide]	false
CCCCC(=O)O[C@]1(C(=O)CO)[C@@H](C)C[C@H]2[C@@H]3CCC4=CC(=O)C=C[C@]4(C)[C@@]3(F)[C@@H](O)C[C@@]21C [Betamethasone valerate, betamethasone valerate]	false
CC1(C)O[C@@H]2C[C@H]3[C@@H]4C[C@H](F)C5=CC(=O)C=C[C@]5(C)[C@@]4(F)[C@@H](O)C[C@]3(C)[C@]2(C(=O)CO)O1 [Fluocinolone acetonide, fluocinolone acetonide]	false
CC(=O)OCC(=O)[C@@]1(O)CC[C@H]2[C@@H]3CCC4=CC(=O)CC[C@]4(C)[C@H]3[C@@H](O)C[C@@]21C [Hydrocortisone acetate, hydrocortisone acetate]	true
C[C@]12CCC(=O)C=C1CC[C@@H]1[C@@H]2[C@@H](O)C[C@@]2(C)[C@H]1CC[C@]2(O)C(=O)CO [Hydrocortisone, hydrocortisone]	true
C[C@@H]1C[C@H]2[C@@H]3C[C@H](F)C4=CC(=O)C=C[C@]4(C)[C@H]3[C@@H](O)C[C@]2(C)[C@H]1C(=O)COC(=O)C(C)(C)C [Fluocortolone 21-pivalate]	false
C[C@@H]1C[C@H]2[C@@H]3CCC4=CC(=O)C=C[C@]4(C)[C@@]3(Cl)[C@@H](O)C[C@]2(C)[C@@]1(OC(=O)c1ccco1)C(=O)CCl [Mometasone furoate, mometasone furoate]	false

Now look at this entry.
Task: Bench note: check whether CCC(=O)OCC(=O)[C@@]1(OC(=O)CC)[C@H](C)C[C@H]2[C@H]3[C@H]([C@@H](O)C[C@@]21C)[C@@]1(C)C=CC(=O)C=C1C[C@H]3Cl [Alclometasone dipropionate] shows Relative potency below 50
Result: false

* * *

Recorded IC50 by entry
- Test system: TPA-induced inflammatory cell infiltration into the dermis
- protocolText: Inhibition of TPA-induced inflammatory cell infiltration into the dermis of mice
- Type: in vivo, BALB/c mice
- conditionLabel: Mus musculus, read from concentration-response curve; concentration that inhibited 50% of the TPA effect; read-out: IC50 for inhibition of inflammatory cell infiltration in the dermis (M × 10^−4)
Hi, when you answer, please include the unit after the number. Thanks!

Known results for compounds:
compound	IC50
CC1(C)O[C@@H]2C[C@H]3[C@@H]4CCC5=CC(=O)C=C[C@]5(C)[C@@]4(F)[C@@H](O)C[C@]3(C)[C@]2(C(=O)CO)O1 [Triamcinolone acetonide]	70 µM
C[C@H]1C[C@H]2[C@@H]3CCC4=CC(=O)C=C[C@]4(C)[C@@]3(F)[C@@H](O)C[C@]2(C)[C@@]1(O)C(=O)CO	2100 µM
CC1(C)O[C@@H]2C[C@H]3[C@@H]4CCC5=CC(=O)CC[C@]5(C)[C@@]4(F)[C@@H](O)C[C@]3(C)[C@]2(C(=O)CCl)O1 [Halcinonide]	60 µM

Task: Could you share what IC50 was measured for C[C@]12CCC(=O)C=C1CC[C@@H]1[C@@H]2[C@@H](O)C[C@@]2(C)[C@H]1CC[C@]2(O)C(=O)CO [Hydrocortisone, hydrocortisone] , tested on TPA-induced inflammatory cell infiltration into the dermis?
Result: 6000 µM

Task: Request - read-out IC50 | tested on TPA-induced inflammatory cell infiltration into the dermis | compound CCCCC(=O)O[C@]1(C(=O)CO)[C@@H](C)C[C@H]2[C@@H]3CCC4=CC(=O)C=C[C@]4(C)[C@@]3(F)[C@@H](O)C[C@@]21C [Betamethasone valerate, betamethasone valerate]
Result: 65 µM

Task: Entry CC1(C)O[C@@H]2C[C@H]3[C@@H]4C[C@H](F)C5=CC(=O)C=C[C@]5(C)[C@@]4(F)[C@@H](O)C[C@]3(C)[C@]2(C(=O)CO)O1 [Fluocinolone acetonide, fluocinolone acetonide] , system TPA-induced inflammatory cell infiltration into the dermis: what IC50 was measured?
Result: 25 µM

* * *

Below, each entry is listed with its recorded pIC50.
- Test system: TPA-induced epidermal hyperplasia
- protocolText: Inhibition of TPA-induced epidermal hyperplasia (epidermal thickness) on back skin of mice
- Type: in vivo, BALB/c mice
- conditionLabel: Mus musculus, topical, Hill equation fit; means ± SD; steroid premixed with TPA, topical; read-out: IC50 (M × 10^−4)
Hey, just a heads up that pIC50 is the negative log base 10 of the concentration in molar.

These recorded examples may help you get a feel for the data.
compound	pIC50
CCCCC(=O)O[C@]1(C(=O)CO)[C@@H](C)C[C@H]2[C@@H]3CCC4=CC(=O)C=C[C@]4(C)[C@@]3(F)[C@@H](O)C[C@@]21C [Betamethasone valerate, betamethasone valerate]	4.82
C[C@H]1C[C@H]2[C@@H]3CCC4=CC(=O)C=C[C@]4(C)[C@@]3(F)[C@@H](O)C[C@]2(C)[C@@]1(O)C(=O)CO [Betamethasone, betamethasone]	2.86

Task: Form field: reported pIC50 of CC1(C)O[C@@H]2C[C@H]3[C@@H]4CCC5=CC(=O)C=C[C@]5(C)[C@@]4(F)[C@@H](O)C[C@]3(C)[C@]2(C(=O)CO)O1 [Triamcinolone acetonide]
Result: 3.95

* * *

- Tested on: TPA-induced epidermal hyperplasia
- protocolText: Inhibition of TPA-induced epidermal hyperplasia (epidermal thickness) on back skin of mice
- Type: in vivo, BALB/c mice
- conditionLabel: from Hill equation; concentration that produced 50% of Emax; read-out: IC50 for inhibition of epidermal thickening (M × 10^−4)
- Method: The mice were housed in stainless steel cages, 6 mice per cage under normal laboratory conditions (room temperature at about 22° C.) at least 7 days before the experiments for acclimatization. […] Epidermal thickness was determined by image analysis. […] The mean and SEM for the six mice in each treatment group were calculated. […] Mice were divided into treatment groups. […] Concentration-response curves were determined after computer-fitting of data.
Each entry below carries its reported IC50.
Numeric answer only, unit µM assumed.

compound	IC50 (µM)
C[C@@H]1C[C@H]2[C@@H]3C[C@H](F)C4=CC(=O)C=C[C@]4(C)[C@H]3[C@@H](O)C[C@]2(C)[C@H]1C(=O)COC(=O)C(C)(C)C [Fluocortolone 21-pivalate]	40

Shift focus to the following entry.
Task: IC50 lookup needed for C[C@@H]1C[C@H]2[C@@H]3CCC4=CC(=O)C=C[C@]4(C)[C@@]3(Cl)[C@@H](O)C[C@]2(C)[C@@]1(OC(=O)c1ccco1)C(=O)CCl [Mometasone furoate, mometasone furoate] , thanks.
Result: 23
